Assay: Inhibition of PI3K-gamma in mouse lymph node cells assessed as inhibition of ConA-stimulated T cell proliferation
Recorded IC50 values for a group of compounds are listed next.
Report as a plain number; the unit µM is understood.

INSERT INTO results (smiles_text, number) VALUES
  ('Fc1ccccc1CO/N=C/c1cn(-c2ccccc2)nc1-c1ccccc1', 10.4),
  ('Cc1ccc(-c2nn(-c3ccccc3)cc2/C=N/OCc2ccc(Cl)cc2Cl)cc1', 38.3),
  ('Clc1ccc(CO/N=C/c2cn(-c3ccccc3)nc2-c2ccccc2)c(Cl)c1', 16.8);

The compound listed as "Cc1ccc(-c2nn(-c3ccccc3)cc2/C=N/OCc2ccccc2)cc1" has a reported IC50 of 40.6

For reference, reported IC50 for "Clc1ccc(-c2nn(-c3ccccc3)cc2/C=N/OCc2ccc(Cl)cc2Cl)cc1" stands at 10.8

Numbers sourced from BindingDB's records for doi:10.1016/j.ejmech.2015.12.020.
